- assayNotes: NCI Yeast Anticancer Drug Screen. Data for the rad14 strain (AID 159);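 further: 0% = growth of vehicle-treated control cultures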
- protocolConditions: S. cerevisiae rad14 strain growth inhibition; at 11.0 µM
This is part of a sample that, as a whole, favours compounds with a hit. Of some 79,000 tested, about 15% had one in any assay. Calls of active or inactive are those of the source. No stated cut-off is given here; in the data, active means growth inhibition above about 70%; inactive means the rest.
Your reply should match one of these outcome classes. 1 (yes) (active), 0 (no) (inactive)

Answered examples (10):
molecule	class
C1=CCN([B-](c2ccccc2)[C+]2CCCCC2)C=C1	0 (no)
CN(C)CCNc1ccc2ncn3c4ccc(O)cc4c(=O)c1c23	0 (no)
CCCCS/C(=C(/C#N)C(N)=O)c1cc2c([nH]1)CCCC2	0 (no)
NC(=S)N1N=C2c3ccccc3CC[C@@H]2[C@@H]1c1ccccc1	0 (no)
CCC(C)COC(=O)Nc1cccc(Cl)c1 (centres undefined)	0 (no)
Cc1ccc(Nc2n[nH]c(=S)s2)c(C)c1	0 (no)
Nc1ccc(/C=C/c2ccc3cccnc3c2)cc1	0 (no)
CC(=O)/C=C/c1cc([N+](=O)[O-])ccc1O	0 (no)
O=C1c2cccc3cccc(c23)C(=O)N1O	0 (no)
C[N+](C)([O-])CCCNc1c2ccccc2nc2cccc([N+](=O)[O-])c12	1 (yes)

Problem: Hi, sorry to bother you, what did the test record for O=[N+]([O-])c1cn[n+]([O-])c2ccccc12 ?
Result: 1 (yes)

Problem: Hi, sorry to bother you, what did the test record for O=C1SS(=O)c2ccccc21 (centres undefined) ?
Result: 0 (no)

###

- assayNotes: NCI Yeast Anticancer Drug Screen. Data for the rad50 strain (AID 155);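 further: 0% = growth of vehicle-only cultures of the same strain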
- protocolConditions: S. cerevisiae rad50 strain growth inhibition; at 33.0 µM
- Procedure: Growth inhibition of yeast strains with defined genetic alterations is measured as a screen for potential anti-cancer activity. Selected strains with alterations in DNA damage repair or cell cycle control were exposed to compounds and growth inhibition was measured relative to vehicle treated controls. The strain used in this assay is rad50
Compounds without any hit were thinned out: in the full panel of roughly 79,000, 15% have a hit. Activity calls are given as the source filed them. No stated cut-off is given here; in the data, active means growth inhibition above about 70%; inactive means the rest.
Your reply should match one of these outcome classes. active, inactive

compound	class
O=[N+]([O-])c1cc[n+]([O-])c(Cl)c1	active
O=S(=O)(c1cccc(C(F)(F)F)c1)N1c2ccccc2-n2cccc2C1c1cccnc1 (stereo unspecified)	active
CCOC(=O)/C(=C\c1cccc(C)c1)C(C)=O	active
N#CC1OB(O)c2ccccc21 (stereo unspecified)	inactive
CCCCCCCCCC(=O)N(CCC)CCC	inactive
Clc1nc(Cl)nc(Nc2cccc3ccccc23)n1	active

Problem: Hi, sorry to bother you, what did the test record for CCCC/C=C1\CCC(CN2CCCC2)C1=O (stereo unspecified) ?
Result: inactive

###

- assayNotes: NCI Yeast Anticancer Drug Screen. Data for the wt2 strain (AID 169);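 further: 0% = growth of vehicle-treated yeast cultures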
- protocolConditions: S. cerevisiae wt2 strain growth inhibition; at 11.0 µM; active compounds read high
This is part of a sample that, as a whole, favours compounds with a hit. Of some 79,000 tested, about 15% had one in any assay.
Decide using growth inhibition: a value greater than or equal to 30% is yes, a smaller one is no.

Answered examples (3):
molecule	class
O=C(Nc1ccc(Cl)cc1)c1cc2cc(N=Nc3ccccc3Cl)ccc2oc1=O	yes
CCCCCc1c(CCCC)c(=O)[nH]c2cc(CNCC(OC)OC)ccc12	no
Cc1cc2nc3ccccc3n2c2ccccc12	no

Problem: Could you tell me if the measured growth inhibition of CN(C)N=Nc1ccc(N(C)C)cc1 reaches 30% or more?
Result: no

Problem: Could you tell me if the measured growth inhibition of COc1ccc(/C=C2\SC(=S)N(/C=C3\C(=O)N(c4ccccc4)N=C3C)C2=O)cc1OC reaches 30% or more?
Result: no

Problem: Could you tell me if the measured growth inhibition of O=NC1c2cccc3cccc(c23)C1N=O (stereo unspecified) reaches 30% or more?
Result: yes
